Recorded values, source ChEMBL document CHEMBL1201862.

system: OVCAR-8; test: NCI tumour cell line growth inhibition, 48 h
Active and inactive are the calls of the source. Rule as the data show it: active = GI50 up to about 1.1 µM and inactive = higher.
Labels: y for active, n for inactive

>>> assigned_class("Nc1ccc(Nc2nc(F)nc(-c3c4ccccc4c4n3CCS4)n2)cc1")
"n"
>>> assigned_class("Cc1cc(=O)n(-c2c(C)cccc2Cl)c(/C=C(\\O)c2ccncc2)n1")
"n"
>>> assigned_class("COC(=O)C(Cc1c[nH]c2ccccc12)NP(=O)(O)OCC1OC(n2cc(F)c(=O)[nH]c2=O)CC1O (stereo unspecified)")
"n"
>>> assigned_class("CC1=C2C=CC(=O)C[C@@]2(C)CCC1")
"n"
>>> assigned_class("CCOC(C)OCC#CCCBr (stereo unspecified)")
"n"
>>> assigned_class("CC(=O)OCC1OC(NC(=O)N(CCCl)N=O)C(OC(C)=O)C(OC(C)=O)C1OC(C)=O (stereo unspecified)")
"n"
>>> assigned_class("CC(=O)OC(C)(C)CCC(=O)[C@](C)(O)[C@H]1[C@H](O)C[C@@]2(C)[C@@H]3CC=C4C(C)=C(OC5OC(CO)C(O)C(O)C5O)C(=O)C[C@@H]4[C@]3(C)C(=O)C[C@]12C (stereo partly specified)")
"n"
>>> assigned_class("NC(=O)c1cn(Cc2ccccc2)c(=O)n1Cc1ccccc1")
"n"
>>> assigned_class("CC1=NC(=N)N=C(C)C1/N=N/c1ccc2[nH]c(C)nc2c1 (stereo unspecified)")
"n"
>>> assigned_class("NC(=O)c1ccc(N)nc1 [6-AMINONICOTINAMIDE]")
"n"
>>> assigned_class("COc1cc(/C=C(\\C#N)c2nc3ccccc3o2)ccc1O")
"n"
>>> assigned_class("N#C/C(=C/c1ccc[nH]1)P(=O)(O)O")
"n"
>>> assigned_class("CCOC(=O)C1=C(C)N(Cc2ccccc2)C(=O)C1CC#N (stereo unspecified)")
"n"
>>> assigned_class("C=C1CC(C)(COc2ccc3ccc(=O)oc3c2)OC1=O (stereo unspecified)")
"n"
>>> assigned_class("COc1ccc(/C=N/N=C(\\N)NO)c(OC)c1OC")
"n"
>>> assigned_class("CC(C)c1ccc(Cc2ccc(C(C)C)c(NC(=O)C(=O)Cc3cnc4ccccc4n3)c2C(C)C)c(C(C)C)c1NC(=O)C(=O)Cc1cnc2ccccc2n1")
"n"
>>> assigned_class("CC(C)/C(Cl)=N\\OC(=O)Nc1cccc(Cl)c1")
"n"
>>> assigned_class("C/C(=N\\NC(=S)N(C)CCN(C)C(=S)N/N=C(\\C)c1ccccn1)c1ccccn1")
"y"
>>> assigned_class("CCC(C(=O)c1ccc(OC)c(OC)c1)N(C(=O)C(F)(F)F)C(C)c1ccccc1 (stereo unspecified)")
"n"
>>> assigned_class("NC1=Nc2cc(C(F)(F)F)ccc2Sc2nc3ccccc3n21")
"n"
>>> assigned_class("Cc1ccc(C2OC(COCc3ccc(Cl)cc3)C(OCc3ccc(Cl)cc3)C2O)cc1 (stereo unspecified)")
"n"
>>> assigned_class("COc1ccc(Nc2nc(N)c(C(=O)c3cccs3)s2)cc1")
"n"
>>> assigned_class("COc1ccc2c(c1)CCCN1CCc3ccccc3C21 (stereo unspecified)")
"n"
>>> assigned_class("O=C1c2ccccc2C2CNC1(O)c1ccccc12 (stereo unspecified)")
"n"
>>> assigned_class("CC(=O)O[C@H]1CC[C@H]2[C@@H]3CCC4=C/C(=N/OCCN(C)C)CC[C@]4(C)[C@H]3CC[C@]12C")
"n"
>>> assigned_class("CC(C)(C)c1ccc(O)c(C(O)c2ccncc2)c1 (stereo unspecified)")
"n"
>>> assigned_class("CC(C)c1ccc2nc3ccc(C(=O)NCCN4CCN(c5ccccc5)CC4)cn3c(=O)c2c1")
"n"
>>> assigned_class("c1cc2c(s1)-c1sccc1C21OCCO1")
"n"
>>> assigned_class("CN(C)Cc1cc(C(=O)/C=C/c2ccc(Cl)cc2Cl)cc(CN(C)C)c1O")
"n"
>>> assigned_class("CN(C)CCCCN1CCc2c(n(C)c3ccccc23)C1=O")
"n"
>>> assigned_class("Cc1cc(NN)nc2[nH]nc(N)c12")
"n"
>>> assigned_class("COc1ccc(C2C=C(c3ccc(C)cc3)N(c3ccc(OC)cc3[N+](=O)[O-])C3C(=O)OC(=O)C23)c(OC)c1 (stereo unspecified)")
"n"
>>> assigned_class("O=c1[nH]nc(Cc2ccccc2)n1O")
"n"
>>> assigned_class("O=C1CC2(CCN(CC3COc4ccccc4O3)CC2)C(=O)N1N1CCCCCC1 (stereo unspecified)")
"n"
>>> assigned_class("O=C(CC/C(CC(=O)c1ccc(Cl)cc1)=N\\O)Nc1cccc(Cl)c1")
"n"
>>> assigned_class("CCOc1ccc2nc3cc(/N=N/c4ccc(N)nc4N)ccc3c(N)c2c1")
"n"
>>> assigned_class("CN1CCN(c2ccc3c(c2)NCC(=O)N3)CC1")
"n"
>>> assigned_class("CC(=O)N1CC2Nc3ccccc3C2CC1CO (stereo unspecified)")
"n"
>>> assigned_class("CC1=C2C(=CC(C)(CO)C2O)C(=O)C(C)(O)C12CC2 (stereo unspecified)")
"y"
>>> assigned_class("CC(C)N(C(=O)C12C3C4C1C1C2C3C41C(=O)N(C(C)C)C(C)C)C(C)C (stereo unspecified)")
"n"
>>> assigned_class("O=C(OCc1ccccc1)c1ccccc1-c1c2ccc(=O)cc-2oc2cc(OCc3ccccc3)ccc12")
"n"

* * *

system: NCI-H522; assay: NCI tumour cell line growth inhibition, 48 h
The source made the active and inactive calls. No stated cut-off is given here; in the data, active = GI50 up to about 1.1 µM and inactive = higher.
MEASUREMENT LABEL: GI50

>>> meas_value("CCC(C(=O)c1ccc(OC)c(OC)c1)N(C(=O)C(F)(F)F)C(C)c1ccccc1 (stereo not given)")
"> 100 µM (inactive)"
>>> meas_value("CC(=O)OCC1OC(NC(=O)N(CCCl)N=O)C(OC(C)=O)C(OC(C)=O)C1OC(C)=O (stereo not given)")
"> 100 µM (inactive)"
>>> meas_value("Cc1nc2cc(/N=N/c3c(O)ccc4ccccc34)ccc2[nH]1")
"22.8 µM (inactive)"
>>> meas_value("C=C1C(=O)O[C@@H]2OC3(C)CCC4C(C)CCC1C42OO3 (stereo not given in full)")
"1.7 µM (inactive)"
>>> meas_value("CC(=O)c1cccc(C)c1C(=O)O")
"> 100 µM (inactive)"
>>> meas_value("CC(C)(O)[C@H](CCO)O[Si](c1ccccc1)(c1ccccc1)C(C)(C)C")
"6.67 µM (inactive)"
>>> meas_value("O=C1Nc2ccccc2/C1=N/Nc1ccccc1Cl")
"37.8 µM (inactive)"
>>> meas_value("CCOC(=O)C(=O)Nc1ccccc1C")
"> 100 µM (inactive)"
>>> meas_value("NC(=O)c1cn(Cc2ccccc2)c(=O)n1Cc1ccccc1")
"> 100 µM (inactive)"
>>> meas_value("CC(C)/C(Cl)=N\\OC(=O)Nc1cccc(Cl)c1")
"1.66 µM (inactive)"

* * *

tested on: SR; experiment: NCI tumour cell line growth inhibition, 48 h
The source made the active and inactive calls. Rule as the data show it: active = GI50 up to about 1.1 µM and inactive = higher.
Outcomes: 1 for active, 0 for inactive

>>> assigned_class("CCN(CC)C(=O)CCN1CC1")
0
>>> assigned_class("CCC1=C(CC)C1(C#N)[N+](=O)[O-]")
0
>>> assigned_class("CC1=C2C(=CC(C)(CO)C2O)C(=O)C(C)(O)C12CC2 (configuration not stated)")
1
>>> assigned_class("c1cc2c(s1)-c1sccc1C21OCCO1")
0
>>> assigned_class("C=C1CC(C)(COc2ccc3ccc(=O)oc3c2)OC1=O (configuration not stated)")
1
>>> assigned_class("COC(=O)C(Cc1c[nH]c2ccccc12)NP(=O)(O)OCC1OC(n2cc(F)c(=O)[nH]c2=O)CC1O (configuration not stated)")
0
>>> assigned_class("O=C1CC(Sc2nc3ccc(I)cc3c(=O)n2Cc2ccccc2)C(=O)NN1 (configuration not stated)")
0
>>> assigned_class("COc1ccc(C(=O)/C=C/c2ccc(OCCSCCCCCCCCCCSCCOc3ccc(/C=C/C(=O)c4ccc(OC)c(OC)c4)cc3)cc2)cc1OC")
0
>>> assigned_class("Oc1cc(Cl)cc2cccnc12")
1
>>> assigned_class("O=c1c2ccccc2nc(-c2ccccc2)n1NC(=S)Nc1ccccc1")
0
>>> assigned_class("CSc1c(C(=O)Nc2ccccc2)c(N)nn1-c1ccccc1")
0
>>> assigned_class("Sc1nc2c(c(-c3nc(S)nc4c3CCCCCCCCCC4)n1)CCCCCCCCCC2")
0

* * *

tested on: UACC-62; assay: NCI tumour cell line growth inhibition, 48 h
Activity calls are given as the source filed them. Rule as the data show it: active = GI50 up to about 1.1 µM and inactive = higher.
MEASUREMENT LABEL: GI50

>>> meas_value("N#Cc1c(-c2ccc(Cl)cc2)cc(-c2nc3ccccc3[nH]2)nc1N")
"7.66 µM (inactive)"
>>> meas_value("Cc1ccccc1C(=O)N/N=C/c1ccc(Sc2nccn2C)c([N+](=O)[O-])c1")
"71.9 µM (inactive)"
>>> meas_value("COC1=C(N)C(=O)c2nc(C)ccc2C1=O")
"1.75 µM (inactive)"
>>> meas_value("Cc1nc2[nH]ncn2c(=O)c1CCCl")
"> 10 µM (inactive)"
>>> meas_value("O=C(Nc1ccc(Cl)cc1)c1cc(S(=O)(=O)Nc2n[nH]c(=O)[nH]2)c(SSc2cc(Cl)c(C(=O)Nc3ccc(Cl)cc3)cc2S(=O)(=O)Nc2n[nH]c(=O)[nH]2)cc1Cl")
"> 100 µM (inactive)"
>>> meas_value("C=C1C(=O)O[C@@]23C1CC[C@@H](C)C2CC[C@@]1(C)OC31 (stereo partly drawn)")
"12.1 µM (inactive)"
>>> meas_value("COC1=C(C(=O)OC(C)(C)C)[C@]2(C)C(C(=O)OC(C)(C)C)C(OC)=C(C(=O)OC(C)(C)C)[C@]2(C)C1C(=O)OC(C)(C)C (stereo partly drawn)")
"> 100 µM (inactive)"
>>> meas_value("CCc1nc2cc3cccnc3c(Cl)c2[nH]c1=O")
"> 100 µM (inactive)"
>>> meas_value("CCCCC[C@H]1CCCCCCCCCC(=O)OC2C(O[C@@H]3OC(C)[C@H](OC(=O)[C@@H](C)CC)C(O[C@@H]4OC(C)[C@H](O)C(O)[C@@H]4O)[C@@H]3OC(=O)[C@H](C)CC)[C@H](OC3C(O)[C@@H](O)C(C)O[C@H]3O1)OC(CO)[C@H]2O (stereo partly drawn)")
"16.9 µM (inactive)"
>>> meas_value("OC(c1ccccc1Br)(c1ccccc1Br)C(F)(F)F")
"26.8 µM (inactive)"
>>> meas_value("COC(=O)C(Cc1c[nH]c2ccccc12)NP(=O)(O)OCC1OC(n2cc(F)c(=O)[nH]c2=O)CC1O (stereo not drawn)")
"> 26.5 µM (inactive)"
>>> meas_value("COC(=O)C1C(C(=O)OC)N(Cc2ccccc2)C(=O)N1Cc1ccccc1 (stereo not drawn)")
"64.6 µM (inactive)"
>>> meas_value("CC(=O)C1CC2(c3ccccc3)C(=O)c3ccccc3N2O1 (stereo not drawn)")
"> 100 µM (inactive)"
>>> meas_value("Cc1ccc(C2OC(COCc3ccc(Cl)cc3)C(OCc3ccc(Cl)cc3)C2O)cc1 (stereo not drawn)")
"4.42 µM (inactive)"
>>> meas_value("CC[C@@H]1OC2(C)CC(S(=O)(=O)c3ccccc3)CC1O2 (stereo partly drawn)")
"> 100 µM (inactive)"
>>> meas_value("COc1ccc(/C(Cl)=C(\\C=O)c2ccccc2)cc1OC")
"7.6 µM (inactive)"
>>> meas_value("Sc1nc2c(c(-c3nc(S)nc4c3CCCCCCCCCC4)n1)CCCCCCCCCC2")
"> 100 µM (inactive)"
>>> meas_value("CCOP(=O)(OCC)OC1c2[nH]ccc2-c2cc(C(=O)OC)[nH]c2C1OC (stereo not drawn)")
"45.8 µM (inactive)"
>>> meas_value("Cn1c(CO)ccc1-c1ccc(-c2ccc(CO)[se]2)[se]1")
"6.95 µM (inactive)"
>>> meas_value("CCC1(c2ccc(OC)c(OC)c2)CCN2C(=O)C(O)CC21 (stereo not drawn)")
"> 100 µM (inactive)"
>>> meas_value("COc1ccc(/N=c2/oc3ccccc3cc2C(N)=O)cc1")
"34.8 µM (inactive)"
>>> meas_value("O=C(NO)C(=O)Nc1ccc(Cl)cc1[N+](=O)[O-]")
"> 100 µM (inactive)"
>>> meas_value("COC(=O)CCC(NC(=S)N/N=C(\\C)c1cccs1)C(=O)OC (stereo not drawn)")
"> 100 µM (inactive)"
>>> meas_value("O=C(OCc1ccccc1)c1ccccc1-c1c2ccc(=O)cc-2oc2cc(OCc3ccccc3)ccc12")
"10.2 µM (inactive)"
>>> meas_value("O=C1C=CN(C2OC(CO)C(O)C2O)C(=O)C1 (stereo not drawn)")
"50.4 µM (inactive)"
>>> meas_value("CN(C)CCNC(=O)c1cccc2ccc(-c3ccc(Br)cc3)nc12")
"1.8 µM (inactive)"
>>> meas_value("NC(CCCCCP(=O)(O)O)C(=O)O (stereo not drawn)")
"80.7 µM (inactive)"
>>> meas_value("O=[N+]([O-])c1cc(F)ccc1S(=O)(=O)c1ccccc1")
"> 10 µM (inactive)"
